# Organism: Homo sapiens
# method: Potency to inhibit ADP-induced human platelet aggregation was determined relative to compound 1(5-Methyl-3-morpholin-4-yl-6-(2-naphthalene-1-one)
# Assay type: functional
endpoint: Relative potency

molecule	recordedResult
Cc1c2c(cc3c(=O)cc(N4CCOCC4)oc13)CC(CN1CCSCC1)O2 (configuration not stated)	2.4
Cc1c2c(cc3c(=O)cc(N4CCOCC4)oc13)CC(CN1CCCCC1)O2 (configuration not stated)	0.5
Cc1c2c(cc3c(=O)cc(N4CCOCC4)oc13)CC(CN1CCN(C)CC1)O2 (configuration not stated)	0.5
Cc1c2oc(CN3CCCC3)cc2cc2c(=O)cc(N3CCOCC3)oc12	0.5
Cc1c2oc(CN3CCN(C)CC3)cc2cc2c(=O)cc(N3CCOCC3)oc12	0.9
Cc1c(OCCN2CCN(C)CC2)ccc2c(=O)cc(N3CCOCC3)oc12	1
Cc1c2oc(CN3CCSCC3)cc2cc2c(=O)cc(N3CCOCC3)oc12	4.5
